The measurements presented in this section are drawn from patent US20170210813A1.

This listing pairs binders with measured IC50, blocking PDGF-BB (250 pM) activation, SRE-luciferase.
SYSTEM UNDER TEST: full length human PDGFR-beta on HEK293 cells (human, UniProt P09619 33-1106)
Sequence (P09619 33-1106 limits assumed): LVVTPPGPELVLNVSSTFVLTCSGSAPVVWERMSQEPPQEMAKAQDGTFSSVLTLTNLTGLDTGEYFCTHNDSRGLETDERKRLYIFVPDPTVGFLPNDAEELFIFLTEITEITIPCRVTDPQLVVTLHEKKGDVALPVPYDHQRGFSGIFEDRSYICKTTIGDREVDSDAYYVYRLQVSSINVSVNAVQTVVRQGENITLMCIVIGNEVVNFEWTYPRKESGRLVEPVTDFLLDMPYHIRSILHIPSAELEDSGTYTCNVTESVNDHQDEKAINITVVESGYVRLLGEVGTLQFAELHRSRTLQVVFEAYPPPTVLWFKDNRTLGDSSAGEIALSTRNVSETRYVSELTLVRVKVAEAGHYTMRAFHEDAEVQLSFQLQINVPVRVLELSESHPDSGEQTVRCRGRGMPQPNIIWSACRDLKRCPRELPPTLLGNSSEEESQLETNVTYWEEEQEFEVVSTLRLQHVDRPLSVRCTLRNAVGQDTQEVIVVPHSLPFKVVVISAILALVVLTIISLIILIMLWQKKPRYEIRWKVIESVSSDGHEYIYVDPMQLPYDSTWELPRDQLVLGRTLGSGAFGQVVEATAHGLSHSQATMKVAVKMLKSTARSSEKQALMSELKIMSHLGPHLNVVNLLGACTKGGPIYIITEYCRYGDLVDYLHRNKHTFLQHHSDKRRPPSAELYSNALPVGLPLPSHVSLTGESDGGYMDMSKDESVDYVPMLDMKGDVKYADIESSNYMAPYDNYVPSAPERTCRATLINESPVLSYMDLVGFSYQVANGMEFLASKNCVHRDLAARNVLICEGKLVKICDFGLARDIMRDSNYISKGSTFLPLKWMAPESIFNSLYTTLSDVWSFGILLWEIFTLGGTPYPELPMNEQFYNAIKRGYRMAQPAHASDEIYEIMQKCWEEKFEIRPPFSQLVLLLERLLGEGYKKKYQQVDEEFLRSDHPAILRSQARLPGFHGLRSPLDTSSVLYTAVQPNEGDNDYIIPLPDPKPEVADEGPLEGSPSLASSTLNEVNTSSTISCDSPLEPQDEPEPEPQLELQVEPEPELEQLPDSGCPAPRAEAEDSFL
ASSAY DETAILS: cell-based or functional assay
Express your answer in M, writing the number without its unit.

Worked examples follow.
H4H3095S (antibody, human IgG4, V domains shown, human IgG4 Fc (H4H prefix)) VH: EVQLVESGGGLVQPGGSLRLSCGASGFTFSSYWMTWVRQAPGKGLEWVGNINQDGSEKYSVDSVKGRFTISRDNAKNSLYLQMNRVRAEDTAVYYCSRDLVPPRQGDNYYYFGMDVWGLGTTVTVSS VL: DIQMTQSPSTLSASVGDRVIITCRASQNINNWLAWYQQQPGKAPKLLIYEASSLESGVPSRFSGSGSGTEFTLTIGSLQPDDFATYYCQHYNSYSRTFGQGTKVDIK :: 6.1e-10
H2M3373N (antibody, V domains shown, mouse Fc (H2M prefix; isotype not spelled out)) VH: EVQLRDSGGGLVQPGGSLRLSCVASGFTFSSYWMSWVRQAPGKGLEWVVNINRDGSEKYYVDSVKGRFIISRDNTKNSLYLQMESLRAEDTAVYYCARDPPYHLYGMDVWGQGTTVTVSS VL: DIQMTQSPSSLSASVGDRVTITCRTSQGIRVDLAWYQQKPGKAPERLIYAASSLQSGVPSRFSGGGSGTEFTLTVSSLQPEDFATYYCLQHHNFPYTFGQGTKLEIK :: 7e-11

Now look at this entry.
Item: H4H3104S (antibody, human IgG4, V domains shown, human IgG4 Fc (H4H prefix)) VH: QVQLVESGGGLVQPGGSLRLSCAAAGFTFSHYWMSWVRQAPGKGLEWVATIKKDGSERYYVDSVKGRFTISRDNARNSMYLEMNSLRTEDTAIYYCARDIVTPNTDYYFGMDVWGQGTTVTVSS VL: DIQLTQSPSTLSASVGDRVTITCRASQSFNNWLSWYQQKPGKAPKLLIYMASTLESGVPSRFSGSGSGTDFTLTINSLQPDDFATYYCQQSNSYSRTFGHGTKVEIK | IC50, blocking PDGF-BB (250 pM) activation, SRE-luciferase: 5e-10
